Molecular target: T1, Mss116 D2, MBP-tagged (Saccharomyces cerevisiae? (paper: yeast), UniProt P15424 342-597)
T1 sequence: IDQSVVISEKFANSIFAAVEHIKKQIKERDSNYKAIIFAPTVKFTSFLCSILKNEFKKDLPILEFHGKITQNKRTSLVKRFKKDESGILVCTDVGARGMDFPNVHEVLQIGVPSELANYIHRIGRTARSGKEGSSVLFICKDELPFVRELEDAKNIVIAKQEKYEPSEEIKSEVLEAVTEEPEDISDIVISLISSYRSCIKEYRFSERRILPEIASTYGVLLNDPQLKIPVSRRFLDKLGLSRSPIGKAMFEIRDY
Experiment: competition; unlabeled dsRNA displacing 250 nM 5' FAM-B-DNA from 500 nM MBP-D2; 20 mM Tris-HCl pH 7.5, 100 mM KCl, 10% glycerol, 1 mM DTT, 5 mM MgCl2, 0.1 mg/ml BSA, 22 C, >=1 h; EMSA gels 6% at 4 C in 0.5x TBE; SEC with 200 mM KCl, no BSA
Conditions: protein: recombinant; tags: N-terminal MBP (MalE); self-complementary, 2 strand copies, 12 bp
Quantity kind: Ki (nM)

12-bp dsRNA, unlabeled (dsRNA) RNA 1: CCCCCGCGGGGG RNA 2: CCCCCGCGGGGG ... 860
